Reported pIC50 values for the following compounds.
system: Ras farnesyl transferase (Rattus norvegicus, UniProt Q02293+Q04631)
Construct: endogenous in cells; host or cells: Rat2 fibroblasts transformed with H-Ras or with an H-Ras/K-Ras C-terminus fusion
protocol-notes: In vivo (cellular) inhibitory activity for Ras farnesyl transferase, Rat2 cell line which expresses C-Harvey-Ras protein
Assay type: cell-based
condition-details: Rat2 cell line expressing C-Harvey-Ras; concentration inhibiting 50% of farnesyl bonding of Ras protein; read-out: H-Ras CIC50
pIC50: −log10 of the molar value.
experimental-readout: pIC50

entry_smiles=O=C(c1cn(Cc2cncn2CCc2ccccc2)cc1-c1cccc2ccccc12)N1CCOCC1 result=7.60
entry_smiles=COc1ccc(C(=O)c2cn(Cc3c[nH]cn3)cc2-c2cccc3ccccc23)cc1 result="4.30 to 6.00"
entry_smiles=O=C(c1ccc(Cc2ccccc2)cc1)c1cn(Cc2c[nH]cn2)cc1-c1cccc2ccccc12 result="4.30 to 6.00"
entry_smiles=CSCC[C@H](NC(=O)c1cn(Cc2c[nH]cn2)cc1-c1cccc2ccccc12)C(=O)O result="4.30 to 6.00"
